System name: OATP1B3 (Homo sapiens, UniProt Q9NPD5)
Sequence (Q9NPD5 whole entry): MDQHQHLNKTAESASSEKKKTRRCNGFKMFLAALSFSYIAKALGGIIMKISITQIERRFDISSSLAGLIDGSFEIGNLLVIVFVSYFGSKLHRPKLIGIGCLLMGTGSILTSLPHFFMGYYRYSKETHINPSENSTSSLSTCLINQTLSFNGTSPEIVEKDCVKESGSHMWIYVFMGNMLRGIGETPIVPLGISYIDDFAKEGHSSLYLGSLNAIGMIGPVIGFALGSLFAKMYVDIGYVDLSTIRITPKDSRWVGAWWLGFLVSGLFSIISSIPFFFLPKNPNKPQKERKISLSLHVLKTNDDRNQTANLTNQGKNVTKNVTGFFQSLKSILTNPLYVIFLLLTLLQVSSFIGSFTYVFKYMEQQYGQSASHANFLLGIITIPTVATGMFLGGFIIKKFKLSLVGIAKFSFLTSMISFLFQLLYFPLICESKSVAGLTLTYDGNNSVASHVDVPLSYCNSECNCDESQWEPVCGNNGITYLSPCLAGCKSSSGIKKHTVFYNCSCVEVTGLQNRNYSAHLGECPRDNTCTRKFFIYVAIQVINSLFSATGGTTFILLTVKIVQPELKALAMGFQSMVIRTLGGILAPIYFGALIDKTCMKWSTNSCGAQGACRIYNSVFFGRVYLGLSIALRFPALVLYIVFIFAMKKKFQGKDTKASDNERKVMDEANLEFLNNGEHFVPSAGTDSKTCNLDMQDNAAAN
Experimental parameters: read-out: Ki for inhibition of sodium fluorescein accumulation, OATP1B3; competitive; inhibitor 10 min before, 3 min co-incubation; ± s.e. of the estimate; R2 0.91
Quantity kind: pKi
Numbers only, as −log10 of the molar value.

IN: Dear colleague, I am looking for the recorded pKi of the following compound: CO[C@@H]1[C@@H]2OP(=O)(O)OC[C@H]2O[C@H]1n1c(Sc2ccc(Cl)cc2)nc2c(N)ncnc21 [8-pCPT-2′-O-Me-cAMP]
OUT: 4.12

====

I'd appreciate it if you could supply pIC50 values for the items below.
System name: OATP1B1 (Homo sapiens)
Sequence (Q9Y6L6 whole entry): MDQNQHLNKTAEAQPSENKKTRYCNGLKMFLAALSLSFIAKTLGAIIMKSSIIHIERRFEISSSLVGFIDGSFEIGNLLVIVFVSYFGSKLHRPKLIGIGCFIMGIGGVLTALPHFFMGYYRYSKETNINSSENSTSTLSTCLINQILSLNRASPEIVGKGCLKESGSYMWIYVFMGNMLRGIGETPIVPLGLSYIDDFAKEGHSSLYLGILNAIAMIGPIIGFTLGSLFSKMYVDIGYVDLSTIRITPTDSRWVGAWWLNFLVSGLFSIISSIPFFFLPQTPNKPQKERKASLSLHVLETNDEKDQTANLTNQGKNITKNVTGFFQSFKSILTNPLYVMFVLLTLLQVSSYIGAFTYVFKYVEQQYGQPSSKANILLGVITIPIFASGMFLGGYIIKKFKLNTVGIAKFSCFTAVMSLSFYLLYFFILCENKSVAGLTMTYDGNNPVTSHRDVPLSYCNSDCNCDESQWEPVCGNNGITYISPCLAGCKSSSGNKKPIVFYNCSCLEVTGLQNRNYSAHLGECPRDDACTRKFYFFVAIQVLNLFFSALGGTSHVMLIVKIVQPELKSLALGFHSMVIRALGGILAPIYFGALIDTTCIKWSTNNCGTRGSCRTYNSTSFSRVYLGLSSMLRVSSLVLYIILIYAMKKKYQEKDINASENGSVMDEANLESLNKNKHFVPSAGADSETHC
Protocol details: cell-based
pIC50: −log10 of the molar value.

Check out these entries, answers already filled in.
IN: Provide the documented pIC50 with OATP1B1 (Homo sapiens) as the system for CO[C@@H]1[C@H](O)[C@@H](CO)O[C@H]1n1c(Sc2ccc(Cl)cc2)nc2c(N)ncnc21 [8-pCPT-2′-O-Me-Ado]
OUT: 4.50

IN: How about Nc1ncnc2c1nc(Sc1ccc(Cl)cc1)n2[C@@H]1O[C@H](CO)[C@@H](O)[C@H]1O [Analog 8-pCPT-Ado, 8-(4-Chlorophenylthio)adenosine] ?
OUT: < 3.52

IN: How about CCCC(=O)Nc1ncnc2c1ncn2[C@@H]1O[C@@H]2COP(=O)(O)O[C@H]2[C@H]1OC(=O)CCC [DB-cAMP] ?
OUT: < 3.52

IN: How about Nc1ncnc2c1ncn2C1OC2COP(=O)(O)OC2C1O (centres unmarked) [cAMP] ?
OUT: < 3.52

Next molecule, please.
IN: Provide the documented pIC50 with OATP1B1 (Homo sapiens) as the system for Nc1ncnc2c1ncn2[C@@H]1O[C@H](CO)[C@@H](O)[C@H]1O [Adenosine, adenosine]
OUT: < 3.52

====

Measured Effect on Nod-induced apoptosis / Nod transport, OATP1B3-transfected HEK293T cells (OATP1B3 (Homo sapiens))
Quantity kind: Effect on Nod-induced apoptosis / Nod transport, OATP1B3-transfected HEK293T cells

IN: Dear colleague, I am looking for the recorded Effect on Nod-induced apoptosis / Nod transport, OATP1B3-transfected HEK293T cells of the following compound: Nc1nc2c(ncn2[C@@H]2O[C@@H]3COP(=O)(O)O[C@H]3[C@H]2O)c(=O)[nH]1
OUT: did not affect

IN: How about CO[C@@H]1[C@@H]2OP(=O)(O)OC[C@H]2O[C@H]1n1c(Sc2ccc(Cl)cc2)nc2c(N)ncnc21 ?
OUT: abolished

IN: How about CO[C@H]1/C=C/O[C@@]2(C)Oc3c(C)c(O)c4c(O)c(cc(O)c4c3C2=O)NC(=O)/C(C)=C\C=C\[C@H](C)[C@H](O)[C@@H](C)[C@@H](O)[C@@H](C)[C@H](OC(C)=O)[C@@H]1C ?
OUT: abolished

IN: How about Nc1ncnc2c1ncn2C1OC2COP(=O)(O)OC2C1O (centres unmarked) ?
OUT: did not affect

====

Measured Ki (OATP1B3 (Homo sapiens))
Answers are plain numbers, in µM.

Check out these entries, answers already filled in.
IN: Dear colleague, I am looking for the recorded Ki of the following molecule: Nc1nc2c(nc(Sc3ccc(Cl)cc3)n2[C@@H]2O[C@@H]3COP(=O)(O)O[C@H]3[C@H]2O)c(=O)[nH]1 [Analog 8-pCPT-cGMP]
OUT: 29.6

IN: How about CO[C@H]1C2OP(O)(=S)OC[C@H]2O[C@H]1n1c(Sc2ccc(Cl)cc2)nc2c(N)ncnc21 (single isomer, unassigned) [Sp-8-pCPT-2′-O-Me-cAMPS] ?
OUT: 2.33

IN: How about Nc1ncnc2c1nc(Sc1ccc(Cl)cc1)n2[C@@H]1O[C@@H]2COP(=O)([O-])O[C@H]2[C@H]1O.[Na+] [Analog 8-pCPT-cAMP] ?
OUT: 13.3

# map each molecule to its Ki
1. O=P1(O)OC[C@H]2O[C@@H](n3c(Sc4ccc(Cl)cc4)nc4c(Nc5ccccc5)ncnc43)C[C@@H]2O1 [8-pCPT-6-Phe-dcAMP]
2. Nc1ncnc2c1nc(Sc1ccc(Cl)cc1)n2C1CC2OP(=O)(O)OCC2O1 (stereo not shown) [Analog 8-pCPT-dcAMP]
3. CO[C@@H]1[C@@H]2OP(=O)(O)OC[C@H]2O[C@H]1n1c(Sc2ccc(Cl)cc2)nc2c(N)ncnc21 [8-pCPT-2′-O-Me-cAMP]

OUT:
[2.14, 14.9, 3.38]

IN: Dear colleague, I am looking for the recorded Ki of the following molecule: O=P1(O)OCC2OC(n3c(Sc4ccc(Cl)cc4)nc4c(Nc5ccccc5)ncnc43)C(O)C2O1 (stereo not shown) [8-pCPT-6-Phe-cAMP]
OUT: 0.804
